System: U251 CNS
Measurement Notes: NCI-60 one-dose screen, 48 h (100 = growth as untreated, 0 = no growth, -100 = all killed)
Experimental Context: 10 µM unless noted
The panel holds about 83,000 compounds, 20% with a hit somewhere; the sample as a whole holds those more often.
Measured Attribute: growth (%)

[[record]]
molecule = "CC1=CCC2C1CC=C(C)C(CC[C@H]1[C@@](C)(O)CCC3OC(C)(C)[C@H](OC(=O)c4ccccc4)CC[C@@]31C)C2(C)C (some centres undefined)"
measured_attribute = "growth"
unit_name = "%"
observed_value = 61.2

[[record]]
molecule = "O=C1/C=C/[C@@H](O)[C@@H]2C[C@@H](O)C[C@H]2/C=C/CCC[C@H]([C@@H](O)CO)O1"
measured_attribute = "growth"
unit_name = "%"
observed_value = 69.1

[[record]]
molecule = "CCC1N=C(N)N=C(N)N1c1ccc(Cl)cc1 (centres undefined)"
measured_attribute = "growth"
unit_name = "%"
observed_value = 58.8

[[record]]
molecule = "O=C(CCCN1CCC(O)(c2ccc(Br)cc2)CC1)c1ccc(F)cc1"
measured_attribute = "growth"
unit_name = "%"
observed_value = 64.4

[[record]]
molecule = "COC(=O)c1ccc2c(c1)nc(-c1ccc(Cl)cc1)n2-c1cc(C(C)(C)C)[nH]n1"
measured_attribute = "growth"
unit_name = "%"
observed_value = 38.2

[[record]]
molecule = "COc1ccc(-c2cnnn2-c2nonc2-n2cccc2)cc1"
measured_attribute = "growth"
unit_name = "%"
observed_value = 22.1

[[record]]
molecule = "Fc1ccc(-c2nc(-c3ccc(-c4nc5ccc(F)cc5[nH]4)cc3)no2)cc1"
measured_attribute = "growth"
unit_name = "%"
observed_value = 82.9

[[record]]
molecule = "CN(C)CCNC(=O)n1cc(-c2ccncc2)c(-c2cc(O)cc(Cl)c2)n1"
measured_attribute = "growth"
unit_name = "%"
observed_value = 81.6

[[record]]
molecule = "COc1cc(NCC(O)CN(CC(C)C)CC(C)C)c2ncccc2c1 (centres undefined)"
measured_attribute = "growth"
unit_name = "%"
observed_value = 80.7

[[record]]
molecule = "CCN1C(=O)C(C)C=C(C)C=C1C (centres undefined)"
measured_attribute = "growth"
unit_name = "%"
observed_value = 111

[[record]]
molecule = "Fc1ccc(-c2cnc3nonc3n2)c(F)c1"
measured_attribute = "growth"
unit_name = "%"
observed_value = 111

[[record]]
molecule = "CCN(CC)CCCC(C)Nc1c(-c2ccccc2)cnc2cc(Cl)ccc12 (centres undefined)"
measured_attribute = "growth"
unit_name = "%"
observed_value = 58.1

[[record]]
molecule = "COc1cnc2c(c1)C(=O)c1c-2n(CCCN2CCNCC2)c(=O)c2cc(Cl)ccc12"
measured_attribute = "growth"
unit_name = "%"
observed_value = -98.4

[[record]]
molecule = "Nc1c(C(=O)Nc2ccccc2)sc2nc3c(cc12)C(=O)CCC3"
measured_attribute = "growth"
unit_name = "%"
observed_value = 25.7


----------
Tested on: M14 melanoma
Measurement Notes: NCI-60 one-dose screen, 48 h (100 = growth as untreated, 0 = no growth, -100 = all killed)
Experimental Context: 10 µM unless noted
This is part of a sample that, as a whole, favours compounds with a hit. Of some 83,000 tested, about 20% had one in any assay.
Each record here notes measured growth.
Measured Attribute: growth (%)

[[record]]
compound = "CCN1C(=O)C(C)C=C(C)C=C1C (centres undefined)"
observed_value = 120

[[record]]
compound = "CCCCCCCCCCCCCC"
observed_value = 115

[[record]]
compound = "COc1ccccc1/C=N\\Nc1ccc([N+](=O)[O-])cn1"
observed_value = 94.4

[[record]]
compound = "COc1cccc(/C=N\\Nc2ccc([N+](=O)[O-])cn2)c1O"
observed_value = 38.8

[[record]]
compound = "CCN(CC)CCNC(=O)n1cc(-c2ccncc2)c(-c2ccc(Cl)c(OC)c2)n1"
observed_value = 78.6

[[record]]
compound = "CCN(CC)CCNC(=O)n1cc(-c2ccncc2)c(-c2cc(Cl)cc(OC)c2)n1"
observed_value = 108

[[record]]
compound = "Cc1ccc(OC2=C(C#N)C(=N)N3C(=NN2)Sc2c(C)ccc(C)c23)cc1"
observed_value = 109

[[record]]
compound = "Cc1ccc(Nc2cccc3ccccc23)cc1"
observed_value = 89.6

[[record]]
compound = "CS(=O)(=O)c1ccc(C(=O)N2N=C(c3ccccc3)CC2c2ccc3c(c2)OCO3)cc1 (centres undefined)"
observed_value = 95.7

[[record]]
compound = "CCCCc1nc(Cl)c(C2CC(c3ccc(S(N)(=O)=O)cc3)=NN2c2cc(Cl)cc(Cl)c2)[nH]1 (centres undefined)"
observed_value = 18.7

[[record]]
compound = "CC(C)c1cccc(C#N)c1"
observed_value = 95.2

[[record]]
compound = "O=C(N/N=C/c1ccc([N+](=O)[O-])cc1)c1ccccc1Nc1ccnc(C(F)(F)F)c1"
observed_value = 101

[[record]]
compound = "O=C(NCCN1CCCCC1)n1cc(-c2ccncc2)c(-c2ccc(Cl)c(O)c2)n1"
observed_value = 27.5

[[record]]
compound = "COc1cc(C2CC(=O)Nc3c2cnn3C)cc(OC)c1OC (centres undefined)"
observed_value = 103

[[record]]
compound = "CS(=O)(=O)c1ccc(C(=O)N/N=C/c2ccccc2Cl)cc1"
observed_value = 91.9

[[record]]
compound = "CC(C)CC(=O)C(CCc1ccccn1)C(C)C (centres undefined)"
observed_value = 105

[[record]]
compound = "O=C(CCCN1CCC(O)(c2ccc(Br)cc2)CC1)c1ccc(F)cc1"
observed_value = 18.6

[[record]]
compound = "CCCCCCCCN(CCCCCCCC)C(=O)CCl"
observed_value = 104

[[record]]
compound = "Cc1cc(O)c2cc3c(O)c(O)ccc3cc2c1"
observed_value = 128

[[record]]
compound = "Cn1cnc([N+](=O)[O-])c1S(=O)(=O)Oc1cccc2ccccc12"
observed_value = -62.9

[[record]]
compound = "CCCCCCCC/C=C\\CCCCCCCC(=O)OCCCCCC"
observed_value = 112

[[record]]
compound = "O=C1/C(=C/c2cc(F)cc(F)c2)Cc2cc(F)cc(F)c21"
observed_value = 82.6

[[record]]
compound = "CC(=O)Cc1ccccn1"
observed_value = 102

[[record]]
compound = "CCN(CC)C(=O)O/N=C(/C)c1ccccc1"
observed_value = 101

[[record]]
compound = "COc1ccccc1-[n+]1cc(-c2ccc(-c3ccccc3)cc2)n2c1CCCCC2"
observed_value = 11.1

[[record]]
compound = "C/C(=N\\Nc1ccc([N+](=O)[O-])cn1)c1ccc(N)cc1"
observed_value = 106

[[record]]
compound = "CCN1C(=O)/C(=C/N2N=C(c3ccc(Cl)cc3)CC2c2ccc(OC)cc2)SC1=S (centres undefined)"
observed_value = 92.3

[[record]]
compound = "N/C(=N\\OC(=O)c1ccccc1)C(Cc1ccccc1)C(=O)NOC(=O)c1ccccc1 (centres undefined)"
observed_value = 48.3

[[record]]
compound = "COc1ccc(-c2cc(-c3ccc(OC)cc3)c3sc(=O)[nH]c3n2)cc1"
observed_value = 109

[[record]]
compound = "O=c1c2cc(Cl)ccc2oc2ccc(OCCCCCN3CCCCCC3)cc12"
observed_value = 45.2

[[record]]
compound = "O=C(c1ccc(OCCN2CCCCC2)cc1)c1c(-c2ccc(O)cc2)sc2cc(O)ccc12"
observed_value = 93.3

[[record]]
compound = "CNC(=O)c1c(NC(=O)c2cccc(C(F)(F)F)c2)sc2c1CCC(=O)C2"
observed_value = -10.9

[[record]]
compound = "CCOc1cc(/C=N\\NC(=O)C[N+](C)(C)C)ccc1O"
observed_value = 118

[[record]]
compound = "COc1ccc2c(c1)OC1=C(C(=O)OC1)C2c1cc(OC)c2c(c1)OCCO2 (centres undefined)"
observed_value = 4.69


Data origin, for the record: PubChem BioAssay (NCI)
